# TEST_TARGET: human GPR142 (Homo sapiens)
# Sequence (Q7Z601 whole entry): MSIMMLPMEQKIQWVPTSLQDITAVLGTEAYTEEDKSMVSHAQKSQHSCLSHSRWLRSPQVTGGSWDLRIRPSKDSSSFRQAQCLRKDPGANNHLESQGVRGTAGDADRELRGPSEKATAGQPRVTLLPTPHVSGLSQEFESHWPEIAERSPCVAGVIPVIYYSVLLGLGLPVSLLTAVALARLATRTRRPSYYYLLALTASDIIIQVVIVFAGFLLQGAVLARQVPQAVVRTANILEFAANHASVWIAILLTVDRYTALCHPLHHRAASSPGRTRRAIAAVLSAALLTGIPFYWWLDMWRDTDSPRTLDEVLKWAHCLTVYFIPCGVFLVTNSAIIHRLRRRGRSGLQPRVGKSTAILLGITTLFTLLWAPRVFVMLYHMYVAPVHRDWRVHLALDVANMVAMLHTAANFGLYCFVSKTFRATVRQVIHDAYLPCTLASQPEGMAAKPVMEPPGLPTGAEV
# ASSAY_METHOD_TEXT: GPR142 agonist effect as measured by IP-1 assay (IP-One HTRF)
# CONDITION_CONTEXT: HEK293 cells expressing human GPR142, 1 hr incubation, IP-1 HTRF; read-out: hGPR142 IP1 EC50
MEASUREMENT_NAME: EC50 (nM)

> print(dat)
                                        smi                  test.target  reading.unit  measured
1  Cc1ncn(C)c1-c1nnc([C@H]2CCC[C@@H](N(C)C(=O)c3cccc(Cl)c3)C2)[nH]1  human GPR142 (Homo sapiens)            nM      14.4

Data origin: patent US11214562B2
